Attribution: patent US20210277109A1

- system: T1, human ROR1 'Frizzled-Kringle domain' (human, UniProt Q01973)
- T1 construct: used plain or biotinylated
- T1 sequence (Q01973 165-406 limits assumed): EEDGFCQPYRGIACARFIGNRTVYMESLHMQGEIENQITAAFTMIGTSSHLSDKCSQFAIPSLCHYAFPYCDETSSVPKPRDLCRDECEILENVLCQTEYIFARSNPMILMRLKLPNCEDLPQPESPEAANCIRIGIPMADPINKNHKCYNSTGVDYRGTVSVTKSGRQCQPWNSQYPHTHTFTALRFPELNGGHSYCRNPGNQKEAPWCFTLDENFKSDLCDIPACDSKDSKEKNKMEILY
- protocolNotes: ELISA, biotinylated antigen on avidin plate; BCC supernatant
Listing of recorded ELISA OD450 by entry.
Please reply with the bare figure in OD450 and do not write the unit itself.

Consider the following illustrative entries.
**Query** // query ELISA OD450 value for entry 324C7 (antibody, V domains shown, chimeric counterpart m4; also called rabbit IgG of BCC well 324C7) VH: QSVEESGGRLVTPGTPLTLTCTVSGFSLSGAGVSWVRQAPGKGLEWIGYIDSGATTYYASWAKGRFTISKASTTVDLKIASPTTEDTATYFCARGYYGMDPWGQGTLVTVSS VL: DIVMTQTPASVEVAVGGTVTIKCQASQNIGSDLAWYQQKPGQPPKLLIYTTSNLASGVPSRFKGSGSGTGFTLTISDLECADAASYCCQGGYFSGRNIYGNAFGGGTEVVVK
**Result** 0.13

**Query** Next record, please: 330F11 (antibody, V domains shown, chimeric counterpart m9; also called rabbit IgG of BCC well 330F11) VH: QSVEESGGRLVTPGTPLTLTCTVSGFSLNNYWMSWVRQAPGEGLEWIGTISSGAYTWFATWATGRFTISKTSTTVDLSITSPTTEDTATYFCARYSSTTDWTYFNIWGPGTLVTVSS VL: DVVMTQTPASVEAAVGGTVTIKCQASQSINNYLAWYQQKPGQPPKLLIYRASTLESGVPSRFKGSGSGTQFTLTISDLECADAATYYCQSYNGVGRTAFGGGTEVEFK
**Result** 1.71

Pending binder:
**Query** // query ELISA OD450 value for entry 323D10 (antibody, V domains shown, chimeric counterpart m5; also called rabbit IgG of BCC well 323D10) VH: QSVEESGGRLVTPGTPLTLTCTVSGFSLSRNAMNWVRQAPGKGLEYIGYISTSGTTFYANWVKGRFTISKTSTTVDLKMTSLTTEDTATYFCARDYNYAMDIWGQGTLVTVSS VL: AIDLTQTPASVEAAVGGTITINCQASESISSWLAWYQQKPGQRPKLLIYETSKLASGVPPRFSGSGSGTQFTLTISGVQCDDAATYYCQSYYRINNIGYDNAFGGGTEVEFK
**Result** 0.17
